- Test system: leukotriene pathway in human whole blood (LTB4)
- Protocol Summary: Human whole blood assay (LTB4 levels after calcium ionophore A23187 stimulation)
- Assay type: cell-based
- Experimental Setup: Homo sapiens, human whole blood diluted 1:1, A23187 stimulation; Table 6 (additional runs); read-out: Human Whole Blood LTB4 IC50 1:1
Experimental Readout: IC50 (nM)
Respond numerically; units are nM and should not be typed.

Compound: CC(=O)N1CCC(S(=O)(=O)c2nc(C(F)(F)F)ccc2-c2ccc(-c3cnc(N)cn3)c(F)c2)CC1 [Example 910]
Experimental Readout: IC50
Units: nM
Val: 9.2
--
Compound: Nc1cnc(-c2ccc(-c3cccnc3S(=O)(=O)c3ccccc3)cc2F)cn1 [Example 897]
Experimental Readout: IC50
Units: nM
Val: 90.3
--
Compound: CC(=O)N1CCCC(S(=O)(=O)c2ncccc2-c2ccc(-c3cnc(N)cn3)c(F)c2)C1 (centres unmarked) [Example 903]
Experimental Readout: IC50
Units: nM
Val: 63.4
--
Compound: Nc1cnc(-c2ccc(-c3ccc(C(F)(F)F)nc3S(=O)(=O)C3CCOCC3)cc2F)cn1 [Example 906]
Experimental Readout: IC50
Units: nM
Val: 2
--
Compound: CCNS(=O)(=O)c1cc(C(F)(F)F)ccc1-c1cnc(-c2cnc(N)nc2)c(F)c1 [Example 674]
Experimental Readout: IC50
Units: nM
Val: 13.3

Now, please, on to the next compound.
Just so you know, measured IC50 for N#Cc1ncc(-c2ccccc2-c2ccc(-c3cnc(N)cn3)c(F)c2)cn1 [Example 849] came out at 3900

###

- Tested System: UniProt:P20292
- Protocol Summary: FLAP binding assay (HTRF format)
- Experimental Setup: Table 6 (additional runs), human FLAP wild type
Counter-ions that a name gives are not always drawn.
Experimental Readout: Ki (nM)
Respond numerically; units are nM and should not be typed.

Study these solved cases before continuing.
Compound: CN1CCN(S(=O)(=O)c2ccccc2-c2ccc(-c3cnc(N)cn3)c(F)c2)CC1 [Example 54]
Tested System: UniProt:P20292
Ki [nM]: 24.9
--
Compound: Nc1cnc(-c2ccc(-c3ccccc3S(=O)(=O)NCCc3ccccc3)cc2F)cn1 [Example 17]
Tested System: UniProt:P20292
Ki [nM]: 1.7
--
Compound: Nc1cnc(-c2ccc(-c3ccccc3S(=O)(=O)N[C@H]3CC[C@H](O)CC3)cc2F)cn1 [Example 110]
Tested System: UniProt:P20292
Ki [nM]: 2.6
--
Compound: Nc1cnc(-c2ccc(-c3ccccc3CSc3ccncn3)cc2F)cn1 [Example 243, hydrochloride]
Tested System: UniProt:P20292
Ki [nM]: 3.3

Just so you know, measured Ki for CCNS(=O)(=O)c1ccccc1-c1ccc(-c2cnc(N)nc2)c(F)c1 [Example 295, trifluoroacetic acid salt] came out at 20

Just so you know, measured Ki for Nc1cnc(-c2ccc(-c3ccc(C(F)(F)F)cc3S(=O)(=O)NCCO)cc2F)cn1 [Example 210] came out at 0.4

Just so you know, measured Ki for CC(CO)NS(=O)(=O)c1ccccc1-c1ccc(-c2cnc3[nH]ccc3n2)c(F)c1 (stereo in doubt) [Example 378] came out at 0.6

###

# pKi values compiled below
- Tested System: human FLAP (Homo sapiens (Human))
- Sequence (P20292 whole entry): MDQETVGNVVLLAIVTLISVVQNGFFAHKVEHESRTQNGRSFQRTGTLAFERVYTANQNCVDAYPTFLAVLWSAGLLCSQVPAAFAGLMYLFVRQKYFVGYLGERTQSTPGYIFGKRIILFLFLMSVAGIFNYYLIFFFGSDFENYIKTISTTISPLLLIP
- Protocol Summary: FLAP binding assay (HTRF format)
- Experimental Setup: Table 6 (additional runs), human FLAP wild type
Structures can show the parent of a compound that is named as a salt.
pKi here: minus log base 10 of the concentration, concentration in moles per litre.

Just so you know, measured pKi for Nc1cnc(-c2ccc(-c3ccccc3CS(=O)(=O)N3CCC(N)CC3)cc2F)cn1 [Example 229, hydrochloride] came out at 5.97

Just so you know, measured pKi for Nc1ncc(-c2ccc(-c3ccccc3Sc3ccnc(N)n3)cc2F)cn1 [Example 335, formate salt] came out at 8.72

Just so you know, measured pKi for Nc1ncc(-c2ccc(-c3ccccc3S(=O)(=O)N3CCCC3)cc2F)cn1 [Example 298, trifluoroacetic acid salt] came out at 7.09

Just so you know, measured pKi for CC(C)(NS(=O)(=O)c1ccccc1-c1ccc(-c2cnc(N)cn2)c(F)c1)C(F)(F)F came out at 8.92
